Target: CDK1/CyclinB (Homo sapiens (Human), UniProt P06493)
Sequence (P06493 whole entry): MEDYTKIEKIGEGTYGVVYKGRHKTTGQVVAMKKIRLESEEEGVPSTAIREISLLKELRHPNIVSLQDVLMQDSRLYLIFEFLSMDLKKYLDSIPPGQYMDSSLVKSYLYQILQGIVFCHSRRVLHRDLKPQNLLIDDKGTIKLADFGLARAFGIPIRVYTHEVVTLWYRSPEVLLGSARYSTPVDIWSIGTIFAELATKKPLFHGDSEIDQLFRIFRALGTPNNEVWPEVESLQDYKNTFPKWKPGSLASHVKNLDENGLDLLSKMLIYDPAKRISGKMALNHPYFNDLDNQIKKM
Sequence (P14635 whole entry partner): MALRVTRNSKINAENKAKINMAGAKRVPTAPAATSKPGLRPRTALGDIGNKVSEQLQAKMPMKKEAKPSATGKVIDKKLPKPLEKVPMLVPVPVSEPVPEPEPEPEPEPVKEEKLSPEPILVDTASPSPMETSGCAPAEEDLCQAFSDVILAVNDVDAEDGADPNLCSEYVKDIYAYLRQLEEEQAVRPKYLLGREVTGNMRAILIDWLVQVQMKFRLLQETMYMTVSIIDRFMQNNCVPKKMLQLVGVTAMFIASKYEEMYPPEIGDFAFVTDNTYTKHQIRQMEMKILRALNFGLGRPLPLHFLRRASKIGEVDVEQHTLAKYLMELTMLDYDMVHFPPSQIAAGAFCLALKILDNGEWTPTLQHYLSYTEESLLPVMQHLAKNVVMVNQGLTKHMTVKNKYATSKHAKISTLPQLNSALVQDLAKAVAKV
Assay: CDK1/CyclinB kinase inhibitory activity (Caliper mobility shift)
Conditions: read-out: CDK1/Cyclin B1 IC50
pIC50: −log10 of the molar value.
observedProperty: pIC50

                                   compound                           systemundertest  observedproperty  valuereported
0  N#Cc1cnc(Nc2ccc(S(N)(=O)=O)cc2)nc1-c1ccc(O)cc1 [Example 92]  CDK1/CyclinB (Homo sapiens (Human), UniProt P06493)             pIC50   7.00 to 8.00
1  CCc1cnc(Nc2ccc(S(N)(=O)=O)cc2)nc1O[C@@H]1CCC[C@@H]1O (single isomer, unassigned) [Example 133a]  CDK1/CyclinB (Homo sapiens (Human), UniProt P06493)             pIC50   7.00 to 8.00
2  CNS(=O)(=O)c1ccc(Nc2ncc(C#N)c(OC3CCC[C@H]3O)n2)cc1 (mixture of isomers) [Example 26]  CDK1/CyclinB (Homo sapiens (Human), UniProt P06493)             pIC50   6.00 to 7.00
3  N#Cc1cnc(Nc2ccc(S(N)(=O)=O)cc2)nc1N1CCC[C@H](F)C1 [Example 81]  CDK1/CyclinB (Homo sapiens (Human), UniProt P06493)             pIC50   6.00 to 7.00

###

Listed below: IC50 values for each entry.
Target: CDK7/CyclinH/MAT1 (Homo sapiens (Human))
Sequence (P50613 whole entry): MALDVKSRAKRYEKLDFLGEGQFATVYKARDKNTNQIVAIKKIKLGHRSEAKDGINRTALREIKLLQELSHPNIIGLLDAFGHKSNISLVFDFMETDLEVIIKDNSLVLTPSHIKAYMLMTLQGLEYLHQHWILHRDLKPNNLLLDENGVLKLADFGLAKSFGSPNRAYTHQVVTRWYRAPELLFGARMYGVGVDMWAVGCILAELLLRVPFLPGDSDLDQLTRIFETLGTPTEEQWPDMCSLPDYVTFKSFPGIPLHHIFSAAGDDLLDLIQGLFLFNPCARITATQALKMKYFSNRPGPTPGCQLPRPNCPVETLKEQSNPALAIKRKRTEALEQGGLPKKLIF
Sequence (P51946 whole entry partner): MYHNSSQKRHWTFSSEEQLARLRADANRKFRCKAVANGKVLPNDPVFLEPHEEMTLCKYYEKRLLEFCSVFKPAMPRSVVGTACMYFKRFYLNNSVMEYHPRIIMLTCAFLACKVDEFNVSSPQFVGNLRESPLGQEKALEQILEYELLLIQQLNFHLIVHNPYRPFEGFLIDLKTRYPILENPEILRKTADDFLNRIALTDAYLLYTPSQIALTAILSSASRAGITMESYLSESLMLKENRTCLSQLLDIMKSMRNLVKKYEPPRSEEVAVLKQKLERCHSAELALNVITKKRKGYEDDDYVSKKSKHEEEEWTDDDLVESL
Sequence (P51948 whole entry partner): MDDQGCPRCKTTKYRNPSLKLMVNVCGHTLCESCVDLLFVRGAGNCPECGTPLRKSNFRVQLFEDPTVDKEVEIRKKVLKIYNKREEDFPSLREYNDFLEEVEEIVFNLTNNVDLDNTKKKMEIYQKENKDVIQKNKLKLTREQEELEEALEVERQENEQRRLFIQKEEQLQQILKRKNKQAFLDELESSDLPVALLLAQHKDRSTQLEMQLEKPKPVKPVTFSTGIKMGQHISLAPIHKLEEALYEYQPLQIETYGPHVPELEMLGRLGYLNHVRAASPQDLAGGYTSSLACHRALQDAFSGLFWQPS
Experiment: CDK7/CyclinH/MAT1 kinase inhibitory activity (Caliper mobility shift)
observedProperty: IC50

>>> df
                                   compound  observedproperty  valuereported
0  Cn1cc(S(=O)(=O)N2CCC(Nc3ncc(C#N)c(O[C@@H]4CCC(F)(F)C[C@]4(C)O)n3)CC2)cn1 (relative stereo) [Example 7a]              IC50   10 to 100 nM
1  CC1(COc2nc(Nc3ccc(S(N)(=O)=O)cc3)ncc2C#N)CCCC1              IC50      ≥ 1000 nM
2  CC1(O)CCC(F)(F)CC1Oc1nc(NC2CCN(S(C)(=O)=O)CC2)ncc1C#N (single isomer, unassigned) [Example 46b]              IC50        < 10 nM
3  N#Cc1cnc(Nc2ccc(S(=O)(=O)NC3CCC3)cc2)nc1OC1CCC[C@H]1O (mixture of isomers)              IC50      ≥ 1000 nM
4  C[C@]1(O)CCC[C@H]1Oc1nc(NC2CCN(S(C)(=O)=O)CC2)ncc1C#N (relative stereo)              IC50   10 to 100 nM
5  CC(C)NS(=O)(=O)c1ccc(Nc2ncc(C#N)c(OC3CCC[C@H]3O)n2)cc1 (mixture of isomers)              IC50      ≥ 1000 nM
6  Cn1cc(S(=O)(=O)N2CCC(Nc3ncc(C#N)c(OC4CCCC4(C)O)n3)CC2)cn1 (single isomer, unassigned) [Example 48a]              IC50   10 to 100 nM

###

Each item that follows carries a reported IC50.
Target: CDK6/CyclinD1 (Homo sapiens (Human))
Sequence (Q00534 whole entry): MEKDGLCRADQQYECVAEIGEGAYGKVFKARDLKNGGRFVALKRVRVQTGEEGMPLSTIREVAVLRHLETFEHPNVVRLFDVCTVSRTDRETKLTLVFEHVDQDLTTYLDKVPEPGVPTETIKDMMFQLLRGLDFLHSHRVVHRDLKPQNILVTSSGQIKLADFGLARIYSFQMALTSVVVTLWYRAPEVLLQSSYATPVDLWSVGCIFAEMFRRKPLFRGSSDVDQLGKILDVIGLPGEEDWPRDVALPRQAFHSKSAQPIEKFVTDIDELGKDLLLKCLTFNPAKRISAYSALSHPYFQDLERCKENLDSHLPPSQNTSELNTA
Sequence (P24385 whole entry partner): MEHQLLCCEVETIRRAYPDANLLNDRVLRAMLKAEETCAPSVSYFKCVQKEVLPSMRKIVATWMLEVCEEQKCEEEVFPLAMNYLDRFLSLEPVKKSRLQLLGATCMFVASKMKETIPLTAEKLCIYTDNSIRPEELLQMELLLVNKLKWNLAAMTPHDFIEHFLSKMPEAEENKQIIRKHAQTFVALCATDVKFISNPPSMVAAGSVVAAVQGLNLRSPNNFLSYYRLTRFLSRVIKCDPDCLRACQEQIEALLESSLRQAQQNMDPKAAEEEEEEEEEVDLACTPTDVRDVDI
Experiment: CDK6/CyclinD1 kinase inhibitory activity (Caliper mobility shift)
Conditions: read-out: CDK6/Cyclin D1 IC50
observedProperty: IC50

compound	valueReported
[2H]C([2H])([2H])NS(=O)(=O)c1ccc(Nc2ncc(C(F)(F)F)c(OC3CCOCCC3O)n2)cc1 (single isomer, unassigned) [Example 102a]	≥ 1000 nM
N#Cc1cnc(Nc2ccc(S(N)(=O)=O)cc2)nc1OC1CCCC1O (single isomer, unassigned) [Example 20b]	100 to 1000 nM
CC1(O)COCCC1Oc1nc(NC2CCN(S(C)(=O)=O)CC2)ncc1C(F)(F)F (single isomer, unassigned) [Example 124b]	100 to 1000 nM
CC(C)NS(=O)(=O)c1ccc(Nc2ncc(C3CC3)c(O[C@@H]3CCC[C@@H]3O)n2)cc1 (single isomer, unassigned) [Example 134a]	100 to 1000 nM
C[C@]1(O)CCC[C@H]1Oc1nc(NC2CCN(S(C)(=O)=O)CC2)ncc1C#N (relative stereo) [Example 5b]	10 to 100 nM
N#Cc1cnc(Nc2ccc(S(N)(=O)=O)cc2)nc1N1CCCCCC1 [Example 68]	10 to 100 nM
NS(=O)(=O)c1ccc(Nc2ncc(F)c(N3CCCCC3)n2)cc1 [Example 86]	≥ 1000 nM
N#Cc1cnc(Nc2ccc(S(N)(=O)=O)cc2)nc1OCC1(CO)CCCC1 [Example 15]	100 to 1000 nM
CC1(O)CC(F)(F)CCC1Oc1nc(NC2CCN(S(C)(=O)=O)CC2)ncc1C#N (single isomer, unassigned) [Example 47a]	< 10 nM
[2H]C([2H])([2H])NS(=O)(=O)c1ccc(Nc2ncc(C(F)(F)F)c(O[C@H]3CCOC[C@H]3O)n2)c(F)c1 (single isomer, unassigned) [Example 101a]	≥ 1000 nM
N#Cc1cnc(Nc2ccc(S(N)(=O)=O)cc2)nc1N1CCC(O)CC1 [Example 82]	100 to 1000 nM
Cn1cc(S(=O)(=O)N2CCC(Nc3ncc(C#N)c(OCC4(C)CCC4)n3)CC2)cn1 [Example 60]	10 to 100 nM
[2H]C([2H])([2H])NS(=O)(=O)c1ccc(Nc2ncc(C(F)(F)F)c(OC3COCCC3O)n2)cc1 (single isomer, unassigned) [Example 117a]	100 to 1000 nM
N#Cc1cnc(Nc2ccc(S(N)(=O)=O)cc2)nc1-c1cccc(F)c1 [Example 95]	≥ 1000 nM

###

Reported pIC50 by item:
Molecular target: CDK6/CyclinD1 (Homo sapiens (Human))
Assay: CDK6/CyclinD1 kinase inhibitory activity (Caliper mobility shift)
Conditions: read-out: CDK6/Cyclin D1 IC50
pIC50: −log10 of the molar value.
observedProperty: pIC50

                                   molecule  valuereported
0  [2H]C([2H])([2H])NS(=O)(=O)c1ccc(Nc2ncc(Cl)c(OC3COCC3(C)O)n2)cc1 (single isomer, unassigned) [Example 140a]   6.00 to 7.00
1  Cn1ccc(S(=O)(=O)N2CCC(Nc3ncc(C#N)c(OCC4(C)CCCC4)n3)CC2)n1         > 8.00
2  N#Cc1cnc(Nc2ccc(S(N)(=O)=O)cc2)nc1OC1CCCC1   7.00 to 8.00
3  N#Cc1cnc(Nc2ccc(S(N)(=O)=O)cc2)nc1OC1CCCC1O (single isomer, unassigned) [Example 20a]   6.00 to 7.00

###

Target: CDK9/CyclinT1 (Homo sapiens (Human))
Sequence (P50750 whole entry): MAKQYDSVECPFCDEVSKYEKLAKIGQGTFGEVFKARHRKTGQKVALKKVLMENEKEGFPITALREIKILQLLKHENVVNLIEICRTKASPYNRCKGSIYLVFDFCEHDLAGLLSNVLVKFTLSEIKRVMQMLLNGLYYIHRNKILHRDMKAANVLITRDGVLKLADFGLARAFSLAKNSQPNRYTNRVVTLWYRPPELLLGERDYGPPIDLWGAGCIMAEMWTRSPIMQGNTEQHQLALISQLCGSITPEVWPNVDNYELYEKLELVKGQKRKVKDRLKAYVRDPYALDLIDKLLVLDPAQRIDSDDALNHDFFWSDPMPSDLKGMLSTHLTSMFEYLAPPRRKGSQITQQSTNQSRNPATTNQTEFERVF
Sequence (O60563 whole entry partner): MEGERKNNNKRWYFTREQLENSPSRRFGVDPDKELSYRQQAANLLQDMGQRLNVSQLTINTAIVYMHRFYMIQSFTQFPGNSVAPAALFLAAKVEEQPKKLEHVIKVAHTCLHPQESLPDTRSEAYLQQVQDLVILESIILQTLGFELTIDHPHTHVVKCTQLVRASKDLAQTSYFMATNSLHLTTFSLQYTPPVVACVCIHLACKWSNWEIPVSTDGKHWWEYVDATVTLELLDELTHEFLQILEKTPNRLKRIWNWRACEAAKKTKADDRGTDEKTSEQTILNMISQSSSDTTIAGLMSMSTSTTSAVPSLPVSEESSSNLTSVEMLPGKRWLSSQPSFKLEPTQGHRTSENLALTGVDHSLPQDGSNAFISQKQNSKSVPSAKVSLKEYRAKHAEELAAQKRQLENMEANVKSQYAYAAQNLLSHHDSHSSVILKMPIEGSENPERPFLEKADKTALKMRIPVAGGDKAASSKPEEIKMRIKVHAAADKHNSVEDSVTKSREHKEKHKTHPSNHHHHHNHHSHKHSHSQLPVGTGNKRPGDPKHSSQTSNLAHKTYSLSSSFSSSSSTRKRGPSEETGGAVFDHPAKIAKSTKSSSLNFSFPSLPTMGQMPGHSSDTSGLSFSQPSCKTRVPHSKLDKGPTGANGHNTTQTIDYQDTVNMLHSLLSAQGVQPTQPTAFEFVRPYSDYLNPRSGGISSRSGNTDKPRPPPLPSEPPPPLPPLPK
Assay: CDK9/CyclinT1 kinase inhibitory activity (Caliper mobility shift)
Type: biochemical
Conditions: read-out: CDK9/Cyclin T1 IC50
pIC50: −log10 of the molar value.
observedProperty: pIC50

In [3]: df
Out[3]:
                                   molecule  observedproperty  valuereported
0  CC1(O)CCCC1Oc1nc(NC2CCN(S(=O)(=O)CC3CC3)CC2)ncc1C#N (single isomer, unassigned) [Example 38b]             pIC50         ≤ 6.00
1  CNS(=O)(=O)c1ccc(Nc2ncc(Br)c(OC3CCCC3O)n2)cc1 (single isomer, unassigned) [Example 142b]             pIC50   6.00 to 7.00
2  CCS(=O)(=O)N1CCC(Nc2ncc(C#N)c(OC3CCCC3(C)O)n2)CC1 (single isomer, unassigned) [Example 36a]             pIC50         ≤ 6.00
3  NS(=O)(=O)c1ccc(Nc2ncc(Cl)c(OC3CCCC3O)n2)cc1 (single isomer, unassigned) [Example 136b]             pIC50   6.00 to 7.00

###

Target: CDK9/CyclinT1 (Homo sapiens (Human))
Assay: CDK9/CyclinT1 kinase inhibitory activity (Caliper mobility shift)
Settings: read-out: CDK9/Cyclin T1 IC50
Measured IC50 of individual entries
observedProperty: IC50

In [3]: df
Out[3]:
                                    compound  observedproperty   valuereported
 0  [2H]C([2H])([2H])NS(=O)(=O)c1ccc(Nc2ncc(C#N)c(OC3CCCOCC3)n2)cc1 (single isomer, unassigned) [Example 33a]              IC50  100 to 1000 nM
 1  NS(=O)(=O)c1ccc(Nc2ncc(C(F)(F)F)c(OC3CCCCC3O)n2)cc1 (single isomer, unassigned) [Example 111a]              IC50  100 to 1000 nM
 2  N#Cc1cnc(Nc2ccc(S(N)(=O)=O)cc2)nc1OC1CCCC1O (single isomer, unassigned) [Example 20a]              IC50  100 to 1000 nM
 3  C[C@@H]1C[C@@H](O)CCN1c1nc(Nc2ccc(S(N)(=O)=O)cc2)ncc1C#N [Example 76]              IC50  100 to 1000 nM
 4  CC1(O)CC(F)(F)CCC1Oc1nc(NC2CCN(S(C)(=O)=O)CC2)ncc1C#N (single isomer, unassigned) [Example 47b]              IC50       ≥ 1000 nM
 5  NS(=O)(=O)c1ccc(Nc2ncc(C(F)(F)F)c(OC3CCCCCC3O)n2)cc1 (single isomer, unassigned) [Example 118a]              IC50         < 10 nM
 6  CC1(COc2nc(NC3CCN(S(C)(=O)=O)CC3)ncc2C(F)(F)F)CCCC1 [Example 128]              IC50    10 to 100 nM
 7  CS(=O)(=O)N1CCC(Nc2ncc(Br)c(OC3CCCCCC3O)n2)CC1 (single isomer, unassigned) [Example 145b]              IC50  100 to 1000 nM
 8  CC(C)NS(=O)(=O)c1ccc(Nc2ncc(C(F)(F)F)c(OC3CCCC3O)n2)cc1 (single isomer, unassigned) [Example 106a]              IC50    10 to 100 nM
 9  C[C@]1(O)CCC[C@H]1Oc1nc(NC2CCN(S(C)(=O)=O)CC2)ncc1C#N (relative stereo) [Example 3b]              IC50  100 to 1000 nM
10  [2H]C([2H])([2H])NS(=O)(=O)c1ccc(Nc2ncc(CC)c(OC3CCCC3O)n2)cc1 (single isomer, unassigned) [Example 149b]              IC50  100 to 1000 nM
11  [2H]C([2H])([2H])NS(=O)(=O)c1ccc(Nc2ncc(CC)c(OC3CCOCC3O)n2)cc1 (single isomer, unassigned) [Example 151a]              IC50       ≥ 1000 nM
12  C[C@]1(O)CC(F)(F)C[C@H]1Oc1nc(NC2CCN(S(C)(=O)=O)CC2)ncc1C#N (relative stereo) [Example 4a]              IC50  100 to 1000 nM

All figures here come from patent US20240166635A1.
